TEST_PROTOCOL: inhibitors of hydroxyurea-induced Chk1 phosphorylation, primary screen, imaging, HeLa, phospho-Chk1 nuclear intensity (AID 1187); further: test concentration not given here
PROTOCOL_CONDITIONS: hydroxyurea-induced phospho-Chk1 immunofluorescence imaging, higher = more signal
Recorded measurements of z-score, one per entry

# COMPOUND, z-score
measured = [
    ("C=C[C@H](C)[C@@H](OC(=O)Nc1ccc(OC)cc1)c1ccc(O)c2ccccc12", 0.099),
    ("CN(C)CCCCCCNC(=O)[C@H]1C[C@H]2C(=O)N[C@@H](CCCCN)C(=O)N2[C@H]1c1cccc(OCCO)c1", -0.0886),
    ("C=C(COC)/C(=C/C[C@H](OC(C)=O)c1ccc(CO)o1)c1cc(C(=O)OC)ccc1OC", -0.735),
    ("COc1ccccc1CN1C(=O)c2ccccc2[C@@]2(Cc3ccccc3N(CC(C)C)C2=O)[C@@H]1c1ccc(CO)cc1", -0.425),
    ("CC(C)C(=C=CC[C@H](O)c1ccc(OCCO)cc1)CCO", 0.505),
    ("CC(C)=CCN[C@H](CO)c1ccccc1", -0.0254),
    ("CCCCN1CC=CC23O[C@@H]4C=CCCOC(=O)C4[C@H]2C(=O)N(CCCCCCO)[C@@H]3C1=O (stereo partly drawn)", 0.79),
    ("CC(C)C[C@@H]1NC(=O)[C@H](C(C)C)NC(=O)[C@@]23C(=O)N[C@@H](Cc4ccccc4)C2[C@H](C)[C@@]2(C)O[C@H]2C3/C=C/CC/C=C/CNC1=O (stereo partly drawn)", 0.432),
]
